system: D(1A) dopamine receptor (Homo sapiens, UniProt P21728)
Sequence (P21728 whole entry): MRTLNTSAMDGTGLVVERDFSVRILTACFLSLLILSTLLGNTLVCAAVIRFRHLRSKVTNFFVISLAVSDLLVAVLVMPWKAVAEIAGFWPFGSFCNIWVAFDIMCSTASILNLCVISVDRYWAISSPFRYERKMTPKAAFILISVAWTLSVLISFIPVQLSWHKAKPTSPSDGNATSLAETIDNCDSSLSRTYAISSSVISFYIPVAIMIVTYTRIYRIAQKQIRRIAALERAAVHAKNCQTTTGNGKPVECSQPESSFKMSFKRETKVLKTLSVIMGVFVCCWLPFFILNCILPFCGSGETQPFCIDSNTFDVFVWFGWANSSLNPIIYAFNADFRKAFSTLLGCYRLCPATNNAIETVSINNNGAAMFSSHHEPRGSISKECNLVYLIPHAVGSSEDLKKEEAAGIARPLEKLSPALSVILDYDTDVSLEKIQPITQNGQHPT
methodSummary: Inhibition of dopamine D1 receptor (unknown origin)
parameter: pIC50
// pIC50: -log10(molar conc.)

Q. // query pIC50 value for entry CCOc1nc(NC(=O)C(C)(C)NC(=O)c2ccc3c(C4CCCC4)c(-c4ccc(F)cn4)n(C)c3c2)ccc1/C=C/C(=O)O
A. 5.22

* * *

methodSummary: Lipophilicity, log D of the compound at pH 7.4
Format: physicochemical
experimentalConditions: buffer
The following ranges of logD define the classes used here: L (below 3), M (3 to below 4), H (4 or more)

Look over these answered cases.
- CCOc1nc(NC(=O)C2(NC(=O)c3ccc4c(C5CCCC5)c(-c5ccccn5)n(C)c4c3)CCC2)cnc1/C=C/C(=O)O: M
- CCOc1nc(NC(=O)C2(NC(=O)c3ccc4c(c3)c(C)c(-c3ccc(F)cn3)n4C3CCCCC3)CCC2)ccc1/C=C/C(=O)O: H
- CCOc1nc(NC(=O)C(C)(C)NC(=O)c2ccc3c(C4CCCC4)c(-c4ccc(F)cn4)n(C)c3c2)ccc1/C=C/C(=O)O: M
- CCOc1nc(NC(=O)C2(NC(=O)c3ccc4c(C5CCCC5)c(-c5ncc(Br)cn5)n(C)c4c3)CCCC2)ccc1/C=C/C(=O)O: H

Q. Returns: class label. Input: COc1nc(NC(=O)C(C)(C)NC(=O)c2ccc3c(C4CCCC4)c(-c4cncnc4)n(C)c3c2)ccc1/C=C/C(=O)O
A. L

Q. Returns: class label. Input: CCOc1nc(NC(=O)C(C)(C)NC(=O)c2ccc3c(C4CCCC4)c(-c4ccc(Cl)cn4)n(C)c3c2)cnc1/C=C/C(=O)O
A. L

Q. Returns: class label. Input: CCOc1nc(NC(=O)C2(NC(=O)c3ccc4c(C5CCCC5)c(-c5cnccn5)n(C)c4c3)CCC2)cnc1/C=C/C(=O)O
A. L

Q. Returns: class label. Input: CCOc1nc(NC(=O)C(C)(C)NC(=O)c2ccc3c(C4CCCC4)c(-c4ncc(Br)cn4)n(C)c3c2)cnc1/C=C/C(=O)O
A. M

* * *

Test system: Hepatitis C virus
methodSummary: Antiviral activity against Hepatitis C virus genotype 1b infected in human Huh cells assessed as inhibition of viral replication by RT-PCR-based replicon assay
Type: functional, cell-based, Hepacivirus hominis
Label Fulfilled when EC50 is strictly below 10 nM; at or above that, label Not fulfilled.

- COc1nc(NC(=O)C2(NC(=O)c3ccc4c(C5CCCC5)c(-c5ccc(F)cn5)n(C)c4c3)CCC2)cnc1/C=C/C(=O)O: Not fulfilled

Q. Given the entry COc1nc(NC(=O)C2(NC(=O)c3ccc4c(c3)c(C)c(-c3ccc(F)cn3)n4C3CCCCC3)CCC2)cnc1/C=C/C(=O)O , would its reported EC50 be below 10 nM?
A. Not fulfilled

Q. Given the entry CCOc1nc(NC(=O)C2(NC(=O)c3ccc4c(C5CCCC5)c(-c5cnccn5)n(C)c4c3)CCC2)cnc1/C=C/C(=O)O , would its reported EC50 be below 10 nM?
A. Not fulfilled

Q. Given the entry CCOc1nc(NC(=O)C2(NC(=O)c3ccc4c(C5CCCC5)c(-c5cncnc5)n(C)c4c3)CCC2)cnc1/C=C/C(=O)O , would its reported EC50 be below 10 nM?
A. Not fulfilled

* * *

methodSummary: Lipophilicity, log D of the compound at pH 7.4
Type: physicochemical
experimentalConditions: buffer
parameter: logD
I'd appreciate a reply containing only the number, no unit.

// solved cases for logD follow
• COc1nc(NC(=O)C(C)(C)NC(=O)c2ccc3c(C4CCCC4)c(-c4ccc(F)cn4)n(C)c3c2)ccc1/C=C/C(=O)O = 3.3
• COc1nc(NC(=O)C2(NC(=O)c3ccc4c(C5CCCC5)c(-c5ncc(Br)cn5)n(C)c4c3)CCC2)ccc1/C=C/C(=O)O = 3.9
• CCOc1nc(NC(=O)C2(NC(=O)c3ccc4c(C5CCCC5)c(-c5cncnc5)n(C)c4c3)CCCC2)ccc1/C=C/C(=O)O = 3.6

Q. // query logD value for entry COc1nc(NC(=O)C(C)(C)NC(=O)c2ccc3c(C4CCCC4)c(-c4cnccn4)n(C)c3c2)ccc1/C=C/C(=O)O
A. 2.4

Q. // query logD value for entry CCOc1nc(NC(=O)C2(NC(=O)c3ccc4c(c3)c(C)c(-c3ccc(F)cn3)n4C3CCCCC3)CCC2)cnc1/C=C/C(=O)O
A. 3.1

Q. // query logD value for entry COc1nc(NC(=O)C2(NC(=O)c3ccc4c(C5CCCC5)c(-c5ccccn5)n(C)c4c3)CCC2)ccc1/C=C/C(=O)O
A. 3.5

* * *

# Lookup of reported logD keyed by entry
methodSummary: Lipophilicity, log D of the compound at pH 7.4
Assay type: physicochemical
experimentalConditions: buffer

Q. // query logD value for entry CCOc1nc(NC(=O)C2(NC(=O)c3ccc4c(c3)c(C)c(-c3ccc(F)cn3)n4C3CCCCC3)CCCC2)ccc1/C=C/C(=O)O
A. > 6.2

Q. // query logD value for entry CCOc1nc(NC(=O)C2(NC(=O)c3ccc4c(C5CCCC5)c(-c5ncc(Cl)cn5)n(C)c4c3)CCC2)cnc1/C=C/C(=O)O
A. 3.5

Q. // query logD value for entry CCOc1nc(NC(=O)C2(NC(=O)c3ccc4c(C5CCCC5)c(-c5cncnc5)n(C)c4c3)CCC2)ccc1/C=C/C(=O)O
A. 3.4

Q. // query logD value for entry CCOc1nc(NC(=O)C(C)(C)NC(=O)c2ccc3c(c2)c(C)c(-c2ccc(F)cn2)n3C2CCCCC2)ccc1/C=C/C(=O)O
A. 3.9

* * *

# Lookup of reported EC50 keyed by entry
Test system: Hepatitis C virus
methodSummary: Antiviral activity against Hepatitis C virus genotype 1b infected in human Huh cells assessed as inhibition of viral replication by RT-PCR-based replicon assay
Format: functional, cell-based, Hepacivirus hominis
Give your result in nM as a bare value.

// solved cases for EC50 follow
- CCOc1nc(NC(=O)C(C)(C)NC(=O)c2ccc3c(C4CCCC4)c(-c4cnccn4)n(C)c3c2)ccc1/C=C/C(=O)O: 7
- COc1nc(NC(=O)C2(NC(=O)c3ccc4c(C5CCCC5)c(-c5ccc(Cl)cn5)n(C)c4c3)CCCC2)cnc1/C=C/C(=O)O: 40

Q. Test system Hepatitis C virus; read-out EC50; what value for CCOc1nc(NC(=O)C(C)(C)NC(=O)c2ccc3c(C4CCCC4)c(-c4ccc(F)cn4)n(C)c3c2)ccc1/C=C/C(=O)O ?
A. 5

Q. Test system Hepatitis C virus; read-out EC50; what value for COc1nc(NC(=O)C2(NC(=O)c3ccc4c(C5CCCC5)c(-c5cncnc5)n(C)c4c3)CCC2)cnc1/C=C/C(=O)O ?
A. 185

* * *

methodSummary: Clearance in cynomolgous monkey at 5 mg/kg, po and 2 mg/kg, iv
Assay type: ADME, organism-based, Macaca fascicularis
experimentalConditions: cynomolgus monkey, in vivo
parameter: clearance
A complete answer gives the number and then names the unit.

- CCOc1nc(NC(=O)C2(NC(=O)c3ccc4c(C5CCCC5)c(-c5ccc(F)cn5)n(C)c4c3)CCC2)ccc1/C=C/C(=O)O: 4.6 mL/min/kg
- CCOc1nc(NC(=O)C(C)(C)NC(=O)c2ccc3c(C4CCCC4)c(-c4ccc(F)cn4)n(C)c3c2)ccc1/C=C/C(=O)O: 13.9 mL/min/kg

Consider the additional compound presented here.
Q. // query clearance value for entry CCOc1nc(NC(=O)C2(NC(=O)c3ccc4c(c3)c(C)c(-c3ccc(F)cn3)n4C3CCCCC3)CCC2)ccc1/C=C/C(=O)O
A. 4.1 mL/min/kg

* * *

methodSummary: AUC in cynomolgous monkey at 5 mg/kg, po and 2 mg/kg, iv
Type: ADME, organism-based, Macaca fascicularis
experimentalConditions: cynomolgus monkey, plasma
parameter: AUC (µM·h)
Give your result in µM·h as a bare value.

// solved cases for AUC follow
* CCOc1nc(NC(=O)C2(NC(=O)c3ccc4c(c3)c(C)c(-c3ccc(F)cn3)n4C3CCCCC3)CCC2)ccc1/C=C/C(=O)O | 14
* CCOc1nc(NC(=O)C(C)(C)NC(=O)c2ccc3c(C4CCCC4)c(-c4ccc(F)cn4)n(C)c3c2)ccc1/C=C/C(=O)O | 1.2

Consider the additional molecule presented here.
Q. // query AUC value for entry CCOc1nc(NC(=O)C2(NC(=O)c3ccc4c(C5CCCC5)c(-c5ccc(F)cn5)n(C)c4c3)CCC2)ccc1/C=C/C(=O)O
A. 12

* * *

methodSummary: Lipophilicity, log D of the compound
Assay type: physicochemical
experimentalConditions: octanol/water
parameter: logD
I'd appreciate a reply containing only the number, no unit.

// solved cases for logD follow
* COc1nc(NC(=O)C2(NC(=O)c3ccc4c(C5CCCC5)c(-c5ccccn5)n(C)c4c3)CCC2)ccc1/C=C/C(=O)O | 3.5
* CCOc1nc(NC(=O)C(C)(C)NC(=O)c2ccc3c(C4CCCC4)c(-c4ccc(F)cn4)n(C)c3c2)ccc1/C=C/C(=O)O | 3.5
* CCOc1nc(NC(=O)C(C)(C)NC(=O)c2ccc3c(C4CCCC4)c(-c4ccc(Cl)cn4)n(C)c3c2)cnc1/C=C/C(=O)O | 2.6

Consider the additional compound presented here.
Q. // query logD value for entry CCOc1nc(NC(=O)C(C)(C)NC(=O)c2ccc3c(C4CCCC4)c(-c4ncc(Cl)cn4)n(C)c3c2)cnc1/C=C/C(=O)O
A. 3.3
